The compounds listed here are annotated with their growth at 10 µM.
# Tested on: SNB-19
# TEST_DETAILS: Cytotoxicity against human SNB19 cells assessed as cell growth at 10 uM after 48 hrs by SRB assay relative to control
# Format: functional
# RUN_PARAMETERS: SNB-19, 48 h, read-out: Activity
ENDPOINT_NAME: growth at 10 µM

[[record]]
mol = "O=C1c2ccccc2C(=O)c2c1cc(SCc1ccccc1)c1nsnc21"
observed_value = "94.3%"

[[record]]
mol = "Cc1cc(C)cc(Sc2cc3c(c4nsnc24)C(=O)c2ccccc2C3=O)c1"
observed_value = "107%"

[[record]]
mol = "Cc1cccc(C)c1Sc1cc2c(c3nsnc13)C(=O)c1ccccc1C2=O"
observed_value = "94.8%"

[[record]]
mol = "O=C1c2ccccc2C(=O)c2c1cc(Sc1cc(Cl)ccc1Cl)c1nsnc21"
observed_value = "84.4%"

[[record]]
mol = "O=C1c2ccccc2C(=O)c2c1cc(Sc1ccccc1)c1nsnc21"
observed_value = "109%"

[[record]]
mol = "O=C1c2ccccc2C(=O)c2c1cc(Cl)c1nsnc21"
observed_value = "106%"

[[record]]
mol = "Cc1ccc(Sc2cc3c(c4nsnc24)C(=O)c2ccccc2C3=O)c(C)c1"
observed_value = "102%"

[[record]]
mol = "O=C1c2ccccc2C(=O)c2c1cc(Sc1ccc(Cl)cc1)c1nsnc21"
observed_value = "105%"

[[record]]
mol = "Cc1ccccc1Sc1cc2c(c3nsnc13)C(=O)c1ccccc1C2=O"
observed_value = "104%"

[[record]]
mol = "O=C1c2ccccc2C(=O)c2c1cc(Sc1cccc(Cl)c1)c1nsnc21"
observed_value = "56.9%"

[[record]]
mol = "O=C1c2ccccc2C(=O)c2c1cc(Sc1ccccc1Br)c1nsnc21"
observed_value = "71.4%"

[[record]]
mol = "O=C1c2ccccc2C(=O)c2c1ccc1nsnc21"
observed_value = "79%"

[[record]]
mol = "CCOc1cccc(Sc2cc3c(c4nsnc24)C(=O)c2ccccc2C3=O)c1"
observed_value = "103%"


Each recorded value in this set is attributed to ChEMBL document CHEMBL3621107.
